Test system: HOP-92 NSCLC
procedure summary: NCI-60 one-dose screen, 48 h
details: 10 µM unless noted
Experimental: Growth inhibition of the HOP-92 human Non-Small Cell Lung tumor cell line is measured as a screen for anti-cancer activity. Cells are grown in 96 well plates and exposed to the test compound for 48 hours. Compounds are tested at a single concentration, which is 10^-5 M for most compounds. The reported endpoint is percent growth (GI% or GIPRCNT), where numbers from 0 - 100% represent growth inhibition, and numbers from -100% - 0 represent cell death. […]
About 83,000 compounds went through this panel and 20% of them were active in at least one assay; those are over-represented in the sample as a whole. Active and inactive are the calls of the source. How the source made its calls: active means growth percent below 10; inactive means the rest.
Could you please pick one outcome from this set? y = active, n = inactive

A selection of reference data follows.
Cc1cc(NCCCCNc2ccnc3cc(Cl)ccc23)nc(Nc2ccc(C(=O)N3CCCC3)cc2)n1 :: n
Cc1cc(=O)[nH]c(N=Nc2c(O)[nH]c3ccccc23)n1 :: n
Cc1ccc(-c2cc3c(cc2O)C2CCCCC2(N2CCOCC2)O3)cc1 (centres undefined) :: n
NC(=O)c1ccc[n+](Cc2ccc(Cl)cc2Cl)c1 :: n
CCc1c2c(nc3ccc(OC(=O)OCc4ccc(B5OC(C)(C)C(C)(C)O5)cc4)cc13)-c1cc3c(c(=O)n1C2)COC(=O)[C@]3(O)CC :: y

Task item: Field: outcome | Entry: `O=C(COc1ccc(/C=C2\Oc3ccccc3C2=O)cc1)Nc1nc2ccccc2s1`
Reply: y

Task item: // return assay outcome for `CC(C)(C)c1ccc(/C=C/C(=O)Nc2ccc(O)cc2)cc1`
Reply: n

Task item: Outcome logged for `Cc1cc(NCc2cc(Nc3ccnc4cc(Cl)ccc34)ccc2F)nc(N2CCN(C)CC2)n1` in this assay:
Reply: n

Task item: Please indicate how the test categorized CCCCCCCCCOc1c(OC)cc(C2CC(=O)Nc3c2c(C)nn3-c2nc3ccccc3[nH]2)cc1OC (centres undefined) .
Reply: y

---

System: MDA-MB-231 breast
procedure summary: NCI-60 one-dose screen, 48 h
details: 10 µM unless noted
Compounds without any hit were thinned out: in the full panel of roughly 83,000, 20% have a hit. Calls of active or inactive are those of the source. How the source made its calls: active means growth percent below 10; inactive means the rest.
Write down the outcome that applies. Available outcomes: active, inactive

Answered cases to consult:
CCOC(=O)c1ccc(N2NC(=O)/C(=C/c3ccc([N+](=O)[O-])o3)C2=O)cc1 :: inactive
Cc1nc2ccccc2c(/C=C/c2ccc(Cl)cc2)c1C(=O)/C=C/c1ccc(F)cc1 :: active
CCN(CC)S(=O)(=O)c1cccc(-c2ccc3c(NC(=O)C4CC4)n[nH]c3c2)c1 :: inactive
O=C1CC(N2C(=O)/C(=C/C(Cl)=C\c3ccc([N+](=O)[O-])cc3)SC2=S)C(=O)N1c1ccc(O)cc1 (stereo not given) :: active

Continue with the next compound.
Task item: Per the assay record, what outcome was assigned to `Cc1cc(=O)oc2c1ccc1oc(C#N)c(C)c12` ?
Reply: inactive

---

Test system: IGROV1 ovarian
procedure summary: NCI-60 one-dose screen, 48 h (100 = growth as untreated, 0 = no growth, -100 = all killed)
details: 10 µM unless noted
Procedure: Growth inhibition of the IGROV1 human tumor cell line is measured as a screen for anti-cancer activity. Cells are grown in 96 well plates and exposed to the test compound for 48 hours. Compounds are tested at a single concentration, which is 10^-5 M for most compounds. The reported endpoint is percent growth (GI% or GIPRCNT), where numbers from 0 - 100% represent growth inhibition, and numbers from -100% - 0 represent cell death. For example, a value of 40 represents 60% growth inhibition. […]
About 83,000 compounds went through this panel and 20% of them were active in at least one assay; those are over-represented in the sample as a whole.
Reported growth values for a set of molecules
Entry rule: numbers only, all in %.

Before answering, review these 3 worked examples.
O=c1oc2ccccc2c(Cl)c1Cl :: 47.5
CN(C)c1ccc(-c2ccc3[nH]c(=O)nc(-c4ccccc4)c3c2)cn1 :: 49.7
COc1cc(N2C(=O)c3nccnc3C2=O)cc(OC)c1OC :: 98.2

Task item: Endpoint output: growth of COc1cc(C2CC(=O)Nc3c2c(C)nn3-c2nc3ccccc3[nH]2)cc2c1OCC(=O)N2 (stereo unspecified) . Value?
Reply: 60.4

Task item: // lookup growth for `COc1cc(CCC[P+](c2ccccc2)(c2ccccc2)c2ccccc2)cc2c1OCO2`
Reply: 28.8

Task item: Quick one: growth for `CCOC(=O)c1c2ncccc2n2c(=O)n(-c3ccccc3C)nnc12` ?
Reply: 63.9

Each recorded value in this set is attributed to PubChem BioAssay (NCI).
